Examples of compounds with documented IC50 follow.
target desc: HIV-1 reverse transcriptase V106A (Human immunodeficiency virus type 1 group M subtype B, UniProt P03366, V705A)
protocol description: DNA-dependent DNA polymerization by recombinant HIV-1 RT
Type: biochemical
observation type: IC50

                           structure_string  readout_value
0  Cc1cc(C)cc(C(=O)c2cc(C)ccc2OCCn2ccc(=O)[nH]c2=O)c1       > 100 µM
1  Cc1cc(C)cc(C(=O)c2cc(Cl)ccc2OCCn2c3c(c(=O)[nH]c2=O)CCC3)c1       > 100 µM
2  O=C(c1cc(Cl)cc(Cl)c1)c1cc(Br)ccc1OCCn1ccc(=O)[nH]c1=O       > 100 µM
